- SYSTEM_NAME: 5-hydroxytryptamine receptor 1A (Homo sapiens)
- Sequence (P08908 whole entry): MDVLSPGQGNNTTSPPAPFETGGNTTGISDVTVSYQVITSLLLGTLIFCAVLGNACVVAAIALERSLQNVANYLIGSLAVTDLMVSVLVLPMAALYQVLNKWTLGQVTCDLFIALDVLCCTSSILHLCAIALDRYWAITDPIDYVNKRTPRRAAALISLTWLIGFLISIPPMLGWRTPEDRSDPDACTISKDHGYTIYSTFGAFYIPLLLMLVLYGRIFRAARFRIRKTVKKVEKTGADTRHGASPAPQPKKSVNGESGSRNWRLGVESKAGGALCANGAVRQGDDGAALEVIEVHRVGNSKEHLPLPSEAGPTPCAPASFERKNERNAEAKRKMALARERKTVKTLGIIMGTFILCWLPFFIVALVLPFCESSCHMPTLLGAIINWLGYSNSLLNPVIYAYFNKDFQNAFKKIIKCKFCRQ
- MEASUREMENT_DESCRIPTION: Binding affinity was determined towards 5-hydroxytryptamine 1A receptor using [3H]8-OH-DPAT as radioligand

>  <SMILES_STRING>
Cc1c(C2CCN(C[C@H](O)COc3cccc4[nH]ccc34)CC2)sc2ccccc12

>  <Ki [nM]>
6.28

$$$$
>  <SMILES_STRING>
Cc1cc2c(OC[C@@H](O)CN3CCC(c4cc5cc(F)ccc5s4)CC3)cccc2[nH]1

>  <Ki [nM]>
7.5

$$$$
>  <SMILES_STRING>
COc1ccc2c(C)c(C3CCN(C[C@H](O)COc4cccc5[nH]ccc45)CC3)sc2c1

>  <Ki [nM]>
6.07

$$$$

The origin of these recorded values is ChEMBL document CHEMBL1136520.
